Where these numbers come from: patent US8633242B2

System: MCF-7 (Breast cancer)
Assay: Sulphorhodamine B cytotoxicity assay, MCF-7
Format: cell-based, human
Conditions: Homo sapiens, MCF7; SRB assay, 48 hours incubation; read-out: Human cancer cell lines IC50, MCF-7 (Breast cancer)
IC50 values for the compounds below.
Quick note: give the figure in µM, leave out the unit.

Some compounds with known IC50 results, for comparison:
1) COc1ccc(/C=C2\C(=O)c3cc(OC)c(OC)c(OC)c3C2c2cc(OC)c(OC)c(OC)c2)c(OC)c1 (stereo not shown) = 1
2) COc1cc(C2C(=Cc3ccccc3)C(=O)c3cc(OC)c(OC)c(OC)c32)cc(OC)c1OC (stereo not shown) = 42.5
3) COc1cc(C2/C(=C/c3ccc(F)cc3)C(=O)c3cc(OC)c(OC)c(OC)c32)cc(OC)c1OC (stereo not shown) = 0.68
4) COc1cc(C2/C(=C/c3cccc4c3OCO4)C(=O)c3cc(OC)c(OC)c(OC)c32)cc(OC)c1OC (stereo not shown) = 57.2

Which IC50 reading was recorded for the compound COc1ccc(/C=C2\C(=O)c3cc(OC)c(OC)c(OC)c3C2c2cc(OC)c(OC)c(OC)c2)cc1OC (stereo not shown) ?
80.8

Which IC50 reading was recorded for the compound COc1cc([C@@H]2c3cc4c(cc3[C@@H](O[C@@H]3O[C@@H]5CO[C@@H](C)O[C@H]5[C@H](O)[C@H]3O)[C@H]3COC(=O)[C@H]23)OCO4)cc(OC)c1O [Etoposide, reference compound] ?
1.5

Which IC50 reading was recorded for the compound COc1cc(C2/C(=C/c3ccc(C(F)(F)F)cc3)C(=O)c3cc(OC)c(OC)c(OC)c32)cc(OC)c1OC (stereo not shown) ?
68.9

----------
Tested on: tubulin protein
Assay: In-vitro tubulin polymerisation inhibition assay
Type: biochemical
Conditions: read-out: Tubulin polymerisation inhibition IC50; tubulin 3 mg/mL, 37° C., 340 nm, 1 h
pIC50 values for the molecules below.
// returns pIC50 (minus log10 of molar concentration), number only

1. COc1cc(C2/C(=C/c3ccc(C(F)(F)F)cc3)C(=O)c3cc(OC)c(OC)c(OC)c32)cc(OC)c1OC (stereo not shown) = 6.22
2. COc1cc(C2/C(=C/c3ccc4c(c3)OCO4)C(=O)c3cc(OC)c(OC)c(OC)c32)cc(OC)c1OC (racemic) = 6.20
3. COc1ccc(/C=C2\C(=O)c3cc(OC)c(OC)c(OC)c3C2c2cc(OC)c(OC)c(OC)c2)c(OC)c1 (stereo not shown) = 5.52

Now turn to the next molecule.
Which pIC50 reading was recorded for the molecule COc1cc(OC)c(OC)cc1/C=C1\C(=O)c2cc(OC)c(OC)c(OC)c2C1c1cc(OC)c(OC)c(OC)c1 (stereo not shown) ?
5.38

----------
IC50 values for the molecules below.
System: A549 (Lung)
Test: Sulphorhodamine B cytotoxicity assay, A549
Assay type: cell-based, human
Conditions: Homo sapiens, A549; SRB assay, 48 hours incubation; read-out: Human cancer cell lines IC50, A549 (Lung)
Quick note: give the figure in µM, leave out the unit.

1. COc1cc([C@@H]2c3cc4c(cc3[C@@H](O[C@@H]3O[C@@H]5CO[C@@H](C)O[C@H]5[C@H](O)[C@H]3O)[C@H]3COC(=O)[C@H]23)OCO4)cc(OC)c1O [Etoposide, reference compound] = 5.4
2. COc1cc(/C=C2\C(=O)c3cc(OC)c(OC)c(OC)c3C2c2cc(OC)c(OC)c(OC)c2)cc(OC)c1OC (stereo not drawn) = 67.6

Now turn to the next molecule.
Which IC50 reading was recorded for the molecule COc1cc(C2/C(=C/c3ccc(C(F)(F)F)cc3)C(=O)c3cc(OC)c(OC)c(OC)c32)cc(OC)c1OC (stereo not drawn) ?
61.5

----------
melting point values for the molecules below.

Some molecules with known melting point results, for comparison:
1) COc1cc(C2/C(=C/c3cccc([N+](=O)[O-])c3)C(=O)c3cc(OC)c(OC)c(OC)c32)cc(OC)c1OC (stereo not shown) = 215 to 217 °C
2) COc1cc(C2/C(=C/c3ccc(F)cc3)C(=O)c3cc(OC)c(OC)c(OC)c32)cc(OC)c1OC (stereo not shown) = 156 to 158 °C
3) COc1cc(C2/C(=C/c3ccc(C(F)(F)F)cc3)C(=O)c3cc(OC)c(OC)c(OC)c32)cc(OC)c1OC (stereo not shown) = 188 to 190 °C

Which melting point reading was recorded for the molecule COc1ccc(/C=C2\C(=O)c3cc(OC)c(OC)c(OC)c3C2c2cc(OC)c(OC)c(OC)c2)cc1 (stereo not shown) ?
188 to 190 °C

Which melting point reading was recorded for the molecule COc1ccc(/C=C2\C(=O)c3cc(OC)c(OC)c(OC)c3C2c2cc(OC)c(OC)c(OC)c2)cc1OC (stereo not shown) ?
179 to 180 °C

Which melting point reading was recorded for the molecule COc1cc(C2C(=Cc3ccccc3)C(=O)c3cc(OC)c(OC)c(OC)c32)cc(OC)c1OC (stereo not shown) ?
139 to 141 °C

Which melting point reading was recorded for the molecule COc1cc(/C=C2\C(=O)c3cc(OC)c(OC)c(OC)c3C2c2cc(OC)c(OC)c(OC)c2)cc(OC)c1OC (stereo not shown) ?
118 to 120 °C

----------
IC50 values for the compounds below.
Test system: A549 (Lung)
Assay: Sulphorhodamine B cytotoxicity assay, A549
Format: cell-based, human
Details: Homo sapiens, A549; SRB assay, 48 hours incubation; read-out: Human cancer cell lines IC50, A549 (Lung)
Description: The benzylidene analogues were evaluated by Sulphorhodamine B Assay as per reported method [Skehan et al., J. Natl. Cancer Inst. 1990, 82, 1107]. […] Cells with viability of more than 98%, as determined by trypan blue exclusion, were used for determination of cytotoxicity. […] In vitro cytotoxicity against various human cancer cell lines was determined using 96-well cell culture plates. […] Cell growth was measured by staining with sulforhodamine B dye. […]
Quick note: give the figure in µM, leave out the unit.

Some compounds with known IC50 results, for comparison:
1. COc1cc(C2/C(=C/c3ccc4c(c3)OCO4)C(=O)c3cc(OC)c(OC)c(OC)c32)cc(OC)c1OC (racemic) = 11
2. COc1cc(C2/C(=C/c3ccc(OC)c(OC)c3OC)C(=O)c3cc(OC)c(OC)c(OC)c32)cc(OC)c1OC (stereo not shown) = 93
3. COc1cc(OC)c(OC)cc1/C=C1\C(=O)c2cc(OC)c(OC)c(OC)c2C1c1cc(OC)c(OC)c(OC)c1 (stereo not shown) = 87.2

Now turn to the next compound.
Lab request: please report IC50 under test system A549 (Lung) for COc1ccccc1/C=C1\C(=O)c2cc(OC)c(OC)c(OC)c2C1c1cc(OC)c(OC)c(OC)c1 (stereo not shown)
62.6

----------
Test system: HCT (Colon)
Test: Sulphorhodamine B cytotoxicity assay, HCT
Assay type: cell-based, human
Details: Homo sapiens; SRB assay, 48 hours incubation; read-out: Human cancer cell lines IC50, HCT (Colon)
QUANTITY NAME: pIC50
// returns pIC50 (minus log10 of molar concentration), number only

Some compounds with known pIC50 results, for comparison:
1) COc1cc(C2/C(=C/c3ccc(C(F)(F)F)cc3)C(=O)c3cc(OC)c(OC)c(OC)c32)cc(OC)c1OC (centres unmarked) [Compound 20] = 4.04
2) COc1ccc(/C=C2\C(=O)c3cc(OC)c(OC)c(OC)c3C2c2cc(OC)c(OC)c(OC)c2)c(OC)c1 (centres unmarked) [Compound 21] = 4.95
3) COc1cc([C@@H]2c3cc4c(cc3[C@@H](O[C@@H]3O[C@@H]5CO[C@@H](C)O[C@H]5[C@H](O)[C@H]3O)[C@H]3COC(=O)[C@H]23)OCO4)cc(OC)c1O [Etoposide, reference compound] = 5.19
4) COc1cc(C2/C(=C/c3cccc4c3OCO4)C(=O)c3cc(OC)c(OC)c(OC)c32)cc(OC)c1OC (centres unmarked) [Compound 17] = 4.34
5) COc1cc(C2/C(=C/c3ccc([N+](=O)[O-])cc3)C(=O)c3cc(OC)c(OC)c(OC)c32)cc(OC)c1OC (centres unmarked) [Compound 11] = 4.01

Which pIC50 reading was recorded for the compound COc1cc(C2/C(=C/c3ccc4c(c3)OCO4)C(=O)c3cc(OC)c(OC)c(OC)c32)cc(OC)c1OC (racemic) [Compound 8] ?
7.00

Which pIC50 reading was recorded for the compound COc1ccc(/C=C2\C(=O)c3cc(OC)c(OC)c(OC)c3C2c2cc(OC)c(OC)c(OC)c2)cc1 (centres unmarked) [Compound 10] ?
4.73

Which pIC50 reading was recorded for the compound COc1cc(C2/C(=C/c3ccc(OC)c(OC)c3OC)C(=O)c3cc(OC)c(OC)c(OC)c32)cc(OC)c1OC (centres unmarked) [Compound 15] ?
4.10

Which pIC50 reading was recorded for the compound COc1cc(/C=C2\C(=O)c3cc(OC)c(OC)c(OC)c3C2c2cc(OC)c(OC)c(OC)c2)cc(OC)c1OC (centres unmarked) [Compound 9] ?
4.40

Which pIC50 reading was recorded for the compound COc1cc(C2C(=Cc3ccccc3)C(=O)c3cc(OC)c(OC)c(OC)c32)cc(OC)c1OC (centres unmarked) [Compound 14] ?
4.83
